Would you kindly list normalized growth for each of these molecules?
- ASSAY_METHOD_TEXT: chemical genetic growth profiling, strain panel (AID 1159580);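 further: tested at 20 µM; growth read once vehicle control cultures reached saturation at 30 °C; 1 = growth at the plate median or of vehicle wells; lower values mean less growth of the strain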
- ASSAY_CONDITIONS: S. cerevisiae deletion strains, growth OD, locus YOR316C, strain cot1, active compounds read low
The campaign covered roughly 5,500 compounds. About 2,000 (36%) were called active. Not shown: some 18% with an inconclusive outcome. The list shows a part of the results.

Task: Name the reported normalized growth value associated with the molecule `C=CCc1ccc2c(c1)OCO2`
Result: 0.99 (inactive)

Task: And what about the molecule OCC(O)Cc1ccc2c(c1)OCO2 (stereo unspecified) ?
Result: 0.997 (inactive)

Task: Likewise for COc1cccc2c1CCC1CC(=O)CCC21C (stereo unspecified) ?
Result: 0.947 (inactive)

Task: Thanks! And `COc1ccc(-c2coc3c(OC)c(O)ccc3c2=O)cc1` ?
Result: 0.961 (inactive)

Task: Entry to check: CC(=O)O[C@]1(C(C)=O)CCC2C3C=C(C)C4=CC(=O)CCC4(C)C3CCC21C (stereo partly specified)
Result: 0.979 (inactive)

Task: What about this molecule? `COc1ccc(-c2coc3c(OC)c(OC)cc(OC)c3c2=O)cc1`
Result: 0.999 (inactive)

Task: Proceed to CCCCCC(=O)O[C@]1(C(C)=O)CCC2C3CCC4=CC(=O)CC[C@]4(C)C3CC[C@@]21C (stereo partly specified)
Result: 1.01 (inactive)

Task: Thanks! And CCC1(C)CC(=O)NC1=O (stereo unspecified) ?
Result: 1.02 (inactive)

Task: Would you kindly repeat that for `COc1ccc(-c2coc3c(O)c(OC)ccc3c2=O)cc1` ?
Result: 0.943 (inactive)

Task: # repeat for `O=[N+]([O-])O[C@H]1CO[C@H]2[C@@H]1OC[C@H]2O[N+](=O)[O-]`
Result: 1.01 (inactive)

Task: Input CC(=O)[C@H]1CCC2C3C[C@H](C)C4=CC(=O)CC[C@]4(C)C3[C@@H](O)C[C@@]21C (stereo partly specified)
Result: 0.979 (inactive)

----------
- ASSAY_METHOD_TEXT: chemical genetic growth profiling, strain panel (AID 1159580);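 further: tested at 20 µM; growth read once vehicle control cultures reached saturation at 30 °C; 1 = growth at the plate median or of vehicle wells; lower values mean less growth of the strain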
- ASSAY_CONDITIONS: S. cerevisiae deletion strains, growth OD, locus YLR342W, strain FKS1 (second series)
In all, about 5,500 compounds went through this assay and about 2,000 (36%) were called active. About 18% were inconclusive and are not listed. Cut-off read from the data, not from the text of the source: active = normalized growth mostly below about 0.91 (no sharp cut-off); inconclusive = no clear call, values can overlap the other calls; inactive = mostly above about 0.92. This is one part of the list.
// classify into active, inactive

Task: What did the test return for CC(C)CC1C(=O)N2CCC[C@H]2C2(O)O[C@](NC(=O)C3C=C4c5cccc6[nH]c(Br)c(c56)C[C@H]4N(C)C3)(C(C)C)C(=O)N12 (some centres not stated) ?
Result: inactive

Task: Same thing, different molecule: `CC[C@@H](CO)NCCN[C@@H](CC)CO`
Result: inactive

Task: Now the same for `CCN(CC)C(=S)SSC(=S)N(CC)CC`
Result: active

Task: Let us now turn to `Cc1ccc(O)cc1`
Result: inactive

Task: Could you do the same for `Oc1ccc(O)cc1` , please?
Result: inactive

Task: Now try O=C(O)C1CC([C@@H]2CCCCN2)CN2CCCCC12 (some centres not stated) .
Result: inactive

Task: And the next one, `NC/C=C/C(=O)O` ?
Result: inactive

----------
- ASSAY_METHOD_TEXT: chemical genetic growth profiling, strain panel (AID 1159580);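 further: tested at 20 µM; growth read once vehicle control cultures reached saturation at 30 °C; 1 = growth at the plate median or of vehicle wells; lower values mean less growth of the strain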
- ASSAY_CONDITIONS: S. cerevisiae deletion strains, growth OD, locus YFR028C, strain CDC14
The campaign covered roughly 5,500 compounds. About 2,000 (36%) were called active. Not shown: some 18% with an inconclusive outcome. No stated cut-off is given here; in the data, active means normalized growth mostly below about 0.91 (no sharp cut-off); inconclusive means no clear call, values can overlap the other calls; inactive means mostly above about 0.92. The list shows a part of the results.
Allowed answers: true (1) (active), false (0) (inactive)

Task: Per the assay record, what outcome was assigned to `N#Cc1c(Cl)c(Cl)c(Cl)c(Cl)c1C#N` ?
Result: true (1)

Task: # repeat for Cc1ccccc1C(=O)N1CCc2c([nH]c3ccccc23)C1C(F)(F)F (stereo unspecified)
Result: false (0)

Task: Now the same for `Cc1cc(SCc2[nH]nc3oc(=O)cc(C)c23)c(Cl)cc1Cl`
Result: false (0)

Task: Queued: `O=C(Oc1cc(Cl)c(Cl)cc1Cl)C1c2ccccc2Oc2ccccc21`
Result: false (0)

Task: Same again, this time with `C/C(=N/NC(N)=S)c1ccc(Oc2c(Cl)cncc2Cl)cc1`
Result: false (0)

Task: Similarly, `O=C(Nc1cc(Cl)cc(Cl)c1)Nc1cc(-c2cccs2)[nH]n1` ?
Result: false (0)
